Where do these numbers come from? They come from ChEMBL document CHEMBL4422665.

# TARGET ENTITY: Fructose-bisphosphate aldolase class 2 (Synechocystis sp. (strain PCC 6803 / Kazusa), UniProt Q55664, R51A)
# Sequence (Q55664 2-359 R51A limits assumed): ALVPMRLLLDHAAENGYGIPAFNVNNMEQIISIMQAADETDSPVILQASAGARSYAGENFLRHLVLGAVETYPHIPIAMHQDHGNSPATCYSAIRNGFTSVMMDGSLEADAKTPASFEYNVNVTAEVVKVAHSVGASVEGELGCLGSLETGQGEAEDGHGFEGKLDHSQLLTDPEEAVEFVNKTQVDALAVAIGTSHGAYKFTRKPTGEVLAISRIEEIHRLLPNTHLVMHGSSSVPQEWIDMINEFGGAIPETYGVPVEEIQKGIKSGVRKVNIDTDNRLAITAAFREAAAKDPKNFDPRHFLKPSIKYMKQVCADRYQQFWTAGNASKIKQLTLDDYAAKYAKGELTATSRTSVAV
# TEST DESCRIPTION: Inhibition of recombinant Synechocystis sp. PCC 6803 FBA2 R51A mutant expressed in Escherichia coli BL21 (DE3) using FBP as substrate measured over 5 mins
Below, each of the molecules is paired with its reported Ki value.
MEASUREMENT KIND: Ki (µM)

SUBSTANCE SMILES | MEASUREMENT KIND | UNIT DESCRIPTOR | ENDPOINT RESULT
O=C(NC(=S)Nc1ccc([N+](=O)[O-])cc1O)c1ccc([N+](=O)[O-])cc1 | Ki | µM | 3.3
O=C(NC(=S)NNC(=O)c1ccccc1O)c1ccccc1 | Ki | µM | 3.9
